Molecular target: EPHB1 (UniProt P54762)
Sequence (P54762 whole entry, looked up): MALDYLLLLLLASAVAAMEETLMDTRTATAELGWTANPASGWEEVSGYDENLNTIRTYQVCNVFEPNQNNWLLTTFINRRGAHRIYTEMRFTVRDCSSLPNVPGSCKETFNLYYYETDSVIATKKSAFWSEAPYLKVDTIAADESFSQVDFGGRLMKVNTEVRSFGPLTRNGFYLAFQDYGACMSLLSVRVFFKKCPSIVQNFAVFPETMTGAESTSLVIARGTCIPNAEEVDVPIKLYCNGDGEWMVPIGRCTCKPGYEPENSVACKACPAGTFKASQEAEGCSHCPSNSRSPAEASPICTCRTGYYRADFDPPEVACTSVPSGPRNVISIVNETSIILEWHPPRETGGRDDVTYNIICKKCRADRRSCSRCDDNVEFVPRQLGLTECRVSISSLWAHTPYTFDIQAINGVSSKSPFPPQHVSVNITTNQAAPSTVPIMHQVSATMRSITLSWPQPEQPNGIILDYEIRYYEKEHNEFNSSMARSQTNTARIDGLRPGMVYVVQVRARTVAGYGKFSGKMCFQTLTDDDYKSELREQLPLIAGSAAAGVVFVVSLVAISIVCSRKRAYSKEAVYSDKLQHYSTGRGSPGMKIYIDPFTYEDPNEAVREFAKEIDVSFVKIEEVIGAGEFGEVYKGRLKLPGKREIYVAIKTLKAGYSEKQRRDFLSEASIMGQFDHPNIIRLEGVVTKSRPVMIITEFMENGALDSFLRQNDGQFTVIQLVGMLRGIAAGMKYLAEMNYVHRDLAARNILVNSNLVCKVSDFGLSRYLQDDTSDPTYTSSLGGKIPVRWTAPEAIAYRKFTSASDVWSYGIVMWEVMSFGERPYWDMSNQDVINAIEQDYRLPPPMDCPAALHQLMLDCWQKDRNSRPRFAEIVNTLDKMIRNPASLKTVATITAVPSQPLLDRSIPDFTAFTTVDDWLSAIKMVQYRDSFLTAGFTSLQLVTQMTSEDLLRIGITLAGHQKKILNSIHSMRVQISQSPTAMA
Assay: phosphorylation enrichment, bacterial display (enrichment ratio); higher = better substrate or ligand; peptides without Tyr show the background;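 also: 11-residue human phosphosite peptides and single-mutation variants displayed on the E. coli surface, counted by deep sequencing, each peptide's frequency after selection divided by its frequency in the unselected input library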;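 also: frequency after pTyr selection over input frequency; kinase dosed for 20-30% of maximal phosphorylation in three min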
reported-endpoint: phosphorylation enrichment
Numbers only.

{"entry-sequence": "RFLRGYRQHAF [HLA-A_Y137_D140H_YF]", "measurement-target": "EPHB1 (UniProt P54762)", "phosphorylation enrichment": 0.64}
{"entry-sequence": "SLLLSYYLIKW [NUP160_Y773_P768S]", "measurement-target": "EPHB1 (UniProt P54762)", "phosphorylation enrichment": 0.673}
{"entry-sequence": "DYNPNYCFAGK [ALK_Y1096]", "measurement-target": "EPHB1 (UniProt P54762)", "phosphorylation enrichment": 2.62}
{"entry-sequence": "PVVKLYATDGR [RP1_Y199]", "measurement-target": "EPHB1 (UniProt P54762)", "phosphorylation enrichment": 0.745}
{"entry-sequence": "FEREQYADRTR [RBM4_Y355_A359T_YF]", "measurement-target": "EPHB1 (UniProt P54762)", "phosphorylation enrichment": 0.398}

Your task in this section: give phosphorylation enrichment for each listed record.
1. AGREIYESDKC [TTN_Y4424]
2. INASGYRIGPA [ACSM1_Y477]
3. KFMVGYEMLAQ [GALT_Y339]
4. RISRKYKKVRF [F8_Y442_G439S]
5. STFVPYEIKVQ [L1CAM_Y784]
6. NTFEKYWLFFQ [GATM_Y103_P105L_YF]

[0.524, 0.371, 0.519, 0.891, 0.564, 0.721]

Your task in this section: give phosphorylation enrichment for each listed record.
1. GQKVAYGGTGD [ALDH3A1_Y305]
2. NTYEKYWLFYQ [GATM_Y103_P105L]
3. GIVKAYYVRAR [AIPL1_Y267]
4. CTTIHYNYMCT [TP53_Y234_N239T]
5. HESEIYGKVCF [CSRP3_Y57_C58G_YF]

1: 0.268; 2: 4.77; 3: 0.398; 4: 2.71; 5: 0.885
